- Test system: HCT-116
- Protocol Summary: NCI tumour cell line growth inhibition, 48 h
Active and inactive are the calls of the source. Cut-off read from the data, not from the text of the source: active = GI50 up to about 1.1 µM and inactive = higher.
The entries below are paired with their reported GI50.

> print(dat)
                                 cpd.smiles  observed.property               result
1  CS(=O)(=O)OCCN(CCOS(C)(=O)=O)c1ccc(/C=N/c2ccc(-c3csc(COc4ccccc4)n3)cc2)cc1               GI50   12.6 µM (inactive)
2  CCOC(=O)[C@H](O)[C@@H](O)C(=O)NCc1ccc(C(=O)c2ccccc2)cc1               GI50  > 100 µM (inactive)
3                    CN(C)NC(=S)Nc1ccccc1Br               GI50  > 100 µM (inactive)
4  CC1(C)C(=O)N(CCCCCCN2C(=O)C(C)(C)c3ccccc32)c2ccccc21               GI50     21 µM (inactive)

// next entry
In plain terms, C1=C2/CC[C@H](Sc3ccccc3)[C@H]2C2(CCCCC/1)OCCO2 has a documented GI50 of 39.8 µM (inactive)

Source: ChEMBL document CHEMBL1201862
